Values were extracted from paper PMC4225009.

Would you mind telling me the reported pIC50 of each entry?
- Target Under Test: human EAAT2 (Homo sapiens, UniProt P43004)
- Construct: expressed in transfected cells
- Procedure Text: [3H]-D-aspartate uptake assay at HEK293 cells stably expressing human EAAT2
- Type: cell-based
- Applied Conditions: [3H]-D-aspartate uptake, HEK293 cells stably expressing human EAAT2; analogs 1 and 2.1-2.40 (Table 1); read-out: EAAT2 IC50
- Excerpt: In total, […] piperazine analogs 2.1-2.40 and 3.1-3.12 were characterized pharmacologically at stable HEK293 cells expressing human EAAT1-3 in a [^3H]-D-aspartate uptake assay, (Jensen & Bräuner-Osborne [2004]) and the results are summarized in Table 1 and Table 2. […] Usually, such findings would lead to the conclusion that the bicyclo-[2.2.1]-heptanyl group occupies a promiscuous hydrophobic pocket, which could be optimized for increased potency. […]
pIC50: −log10 of the molar value.

For O=C(c1ccc2c(c1)OCO2)N1CCN(c2cccc(C(F)(F)F)c2)CC1 [2.12] , what is its reported pIC50?
< 4.00

Name the recorded pIC50 for O=C([C@@H]1C[C@@H]2CC[C@H]1C2)N1CCN(c2cccc(C(F)(F)F)c2)CC1 (racemic) [(±)-endo-1] .
4.49

Would you kindly share the measured pIC50 for O=C(c1ccccc1)N1CCN(c2cccc(C(F)(F)F)c2)CC1 [2.11] ?
< 4.00

// returns reported pIC50 for input O=C(C1CC2CCC1C2)N1CCN(c2cccc(C(F)(F)F)c2)CC1 (racemic) [(±)-endo-exo-1]
4.38

Please give the measured pIC50 for this compound: O=C(C1CC1)N1CCN(c2cccc(C(F)(F)F)c2)CC1 [2.5]
< 3.52

Which measured pIC50 value corresponds to O=C(c1cccc(Oc2ccccc2)c1)N1CCN(c2cccc(C(F)(F)F)c2)CC1 [2.13] ?
< 3.52

I am curious: what pIC50 value has been reported for O=C(C1CC2CCC1CC2)N1CCN(c2cccc(C(F)(F)F)c2)CC1 (stereo not shown) [2.1] ?
< 3.52
